Test system: collagen biosynthesis (uterus)
Experiment: Collagen biosynthesis suppressant activity in uterus of estradiol-17β treated rats (method of T. Ishimaru et al)
Format: in vivo, SD rats
Details: 1 mg/kg i.p. once daily 6 days + Estradiol-17β (5 μg); groups of 10
For each of the molecules below, state its Total protein content of uterus.
Give bare numbers, in mg.

INSERT INTO assay_data (molecule, val) VALUES
  ('COc1cc2c(c(O)c1CSCC(NC(C)=O)C(=O)O)C(=O)C(CO)=CC2=O (stereo not shown) [P-23924E]', 15.73),
  ('COC1=CC(=O)c2c(cc(OC)c(CSCC(NC(C)=O)C(=O)O)c2O)C1=O (stereo not shown) [P-23924C]', 14.01);

Provide reported Total protein content of uterus for each item, in the same order as listed.
1. COc1cc2c(c(O)c1CSCC(NC(C)=O)C(=O)O)C(=O)C(C)=CC2=O (stereo not shown) [P-23924A]
2. COC1=C(CO)C(=O)c2c(cc(OC)c(CSCC(NC(C)=O)C(=O)O)c2O)C1=O (stereo not shown) [P-23924F]

(A)
1: 15.67; 2: 15.20

###

Tested on: collagen biosynthesis (uterus)
Test: Collagen biosynthesis suppressant activity in uterus of estradiol-17β treated rats (method of T. Ishimaru et al)
Type: in vivo, SD rats
Settings: 1 mg/kg i.p. once daily 6 days + Estradiol-17β (5 μg); groups of 10
outcome measure: Body weight of rats (g)
Numbers only, in g.

Some solved entries appear below for comparison.
INSERT INTO results (compound, outcome_measure, val) VALUES
  ('COC1=C(CO)C(=O)c2c(cc(OC)c(CSCC(NC(C)=O)C(=O)O)c2O)C1=O (centres unmarked) [P-23924F]', 'Body weight of rats', 71),
  ('COc1cc2c(c(O)c1CSCC(NC(C)=O)C(=O)O)C(=O)C(C)=CC2=O (centres unmarked) [P-23924A]', 'Body weight of rats', 73),
  ('COC1=C(C)C(=O)c2c(cc(OC)c(CSCC(NC(C)=O)C(=O)O)c2O)C1=O (centres unmarked) [P-23924B]', 'Body weight of rats', 70),
  ('COc1cc2c(c(O)c1CSCC(NC(C)=O)C(=O)O)C(=O)C(CO)=CC2=O (centres unmarked) [P-23924E]', 'Body weight of rats', 72);

(Q) Body weight of rats lookup needed for COC1=CC(=O)c2c(cc(OC)c(CSCC(NC(C)=O)C(=O)O)c2O)C1=O (centres unmarked) [P-23924C] , thanks.
(A) 73

###

Biological target: Protocollagen prolyl hydroxylase (Gallus gallus)
Construct: partially purified enzyme preparation derived from chick embryo; from tissue; host or cells: chick embryo (partially purified enzyme preparation)
Sequence (P16924 1-516): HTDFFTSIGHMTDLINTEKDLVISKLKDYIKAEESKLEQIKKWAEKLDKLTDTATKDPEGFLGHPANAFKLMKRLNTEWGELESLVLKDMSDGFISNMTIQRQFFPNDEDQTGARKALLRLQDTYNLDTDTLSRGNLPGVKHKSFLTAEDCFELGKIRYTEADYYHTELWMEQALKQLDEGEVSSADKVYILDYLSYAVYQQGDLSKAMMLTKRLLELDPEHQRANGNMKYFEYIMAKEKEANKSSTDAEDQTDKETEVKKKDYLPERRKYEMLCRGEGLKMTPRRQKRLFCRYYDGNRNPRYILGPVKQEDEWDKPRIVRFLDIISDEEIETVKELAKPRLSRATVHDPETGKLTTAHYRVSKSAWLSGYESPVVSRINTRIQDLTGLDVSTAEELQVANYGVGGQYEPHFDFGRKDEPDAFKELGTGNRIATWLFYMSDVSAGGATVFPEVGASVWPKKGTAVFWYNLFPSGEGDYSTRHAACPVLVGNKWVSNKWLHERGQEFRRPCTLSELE
Sequence (P09102 23-515 partner): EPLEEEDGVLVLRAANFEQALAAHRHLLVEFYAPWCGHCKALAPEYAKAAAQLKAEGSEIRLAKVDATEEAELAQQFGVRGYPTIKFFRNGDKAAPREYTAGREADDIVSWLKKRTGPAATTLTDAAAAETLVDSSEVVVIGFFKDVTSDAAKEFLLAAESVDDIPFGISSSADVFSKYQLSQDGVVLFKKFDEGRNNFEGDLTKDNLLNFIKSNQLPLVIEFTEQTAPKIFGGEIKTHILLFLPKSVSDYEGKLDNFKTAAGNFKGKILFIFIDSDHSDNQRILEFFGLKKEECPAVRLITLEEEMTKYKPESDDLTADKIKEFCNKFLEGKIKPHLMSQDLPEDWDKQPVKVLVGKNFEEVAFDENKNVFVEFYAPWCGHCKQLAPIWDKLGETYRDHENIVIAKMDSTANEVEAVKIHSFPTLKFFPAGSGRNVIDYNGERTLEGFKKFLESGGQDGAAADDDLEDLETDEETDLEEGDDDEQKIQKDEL
Experiment: Protocollagen prolyl hydroxylase inhibiting activity (method of R. E. Rhoads, substrate (Pro-Pro-Gly)5.4H2O)
Type: biochemical, chick embryo
Details: 12.5 μM compound, 100 μg enzyme
Procedure: […] On the other hand, by a similar procedure as above, the protocollagen prolyl hydroxylase inhibiting activities on the compounds of P-23924 AR, BR, CR and DR are measured.
outcome measure: inhibition at 12.5 µM (%)
Give bare numbers, in %.

Some solved entries appear below for comparison.
INSERT INTO assay_data (smi, outcome_measure, val) VALUES
  ('COC1=CC(=O)c2c(cc(OC)c(C)c2O)C1=O', 'inhibition at 12.5 µM', 33),
  ('COC1=C(C)C(=O)c2c(cc(O)c(C)c2O)C1=O', 'inhibition at 12.5 µM', 20),
  ('COC1=C(C)C(=O)c2c(cc(OC)c(C)c2O)C1=O', 'inhibition at 12.5 µM', 22);

# ---- query molecule ----
(Q) inhibition at 12.5 µM lookup needed for COc1cc2c(c(O)c1C)C(=O)C(C)=CC2=O , thanks.
(A) 26
